# credit: paper PMC5934667

# target_entity: RecA (bacterial, UniProt P0A7G6 1-353)
# Sequence (P0A7G6 whole entry): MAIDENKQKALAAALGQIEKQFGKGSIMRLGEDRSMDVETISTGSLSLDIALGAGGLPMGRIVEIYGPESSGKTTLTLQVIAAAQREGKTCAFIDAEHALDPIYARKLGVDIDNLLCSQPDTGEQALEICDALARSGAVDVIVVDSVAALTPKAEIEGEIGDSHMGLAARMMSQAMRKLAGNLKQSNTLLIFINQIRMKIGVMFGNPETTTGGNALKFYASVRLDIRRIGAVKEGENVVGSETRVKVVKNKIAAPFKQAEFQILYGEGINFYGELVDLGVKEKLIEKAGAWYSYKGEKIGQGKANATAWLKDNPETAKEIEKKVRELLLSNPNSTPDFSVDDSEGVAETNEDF
# assay_text: stopped-flow Cy3 fluorescence
pKd: −log10 of the molar value.
measurement_kind: pKd

Exam item: Any idea what pKd was measured for 5'-Cy3-dT79 (ssDNA) DNA: TTTTTTTTTTTTTTTTTTTTTTTTTTTTTTTTTTTTTTTTTTTTTTTTTTTTTTTTTTTTTTTTTTTTTTTTTTTTTTT ?
Marked response: > 5.96
